This collection of values is drawn from PubChem BioAssay (NCI).

Test system: HT29 colon
TEST_SUMMARY: NCI-60 one-dose screen, 48 h (100 = growth as untreated, 0 = no growth, -100 = all killed)
PROTOCOL_CONDITIONS: 10 µM unless noted
About 83,000 compounds went through this panel and 20% of them were active in at least one assay; those are over-represented in the sample as a whole.
RECORDED_ENDPOINT: growth (%)
Reply with just the number (in %).

COMPOUND	TARGET_OR_SYSTEM	growth / %
CN(C)c1ccc(/C=N\Nc2cc(=O)[nH]c3ccc(Cl)cc23)cc1	HT29 colon	96
COc1cc(C(=O)c2cc(C)c3[nH]c4ccc(C)cc4c3c2C)cc(OC)c1OC	HT29 colon	10.6
CCS(=O)(=O)c1ncnc2nc[nH]c12	HT29 colon	93.2
O=C(N=c1oc2ccccc2cc1-c1cc2ccccc2[nH]1)Nc1ccc(Cl)cc1	HT29 colon	99.8
Cc1ccc(C(C)C)cc1C(=O)C[n+]1ccccc1	HT29 colon	88.2
COc1nc2ccc(C)cc2cc1-c1nc2c(cnn2-c2ccc(Br)cc2)c(=O)[nH]1	HT29 colon	10.3

Exam item: Please supply the value of reported growth for the item "COc1cccc(OC)c1C(=O)N[C@@H]1C(=O)N2[C@@H]1SC(C)(C)[C@@H]2C(=O)O"
Marked response: 98.9

Exam item: Please supply the value of reported growth for the item CC(=O)N1CCN(c2ccc(OCC3CO[C@](Cn4ccnc4)(c4ccc(Cl)cc4Cl)O3)cc2)CC1 (stereo not given in full)
Marked response: 80.6

Exam item: Please supply the value of reported growth for the item "COc1cccc(-c2nc(-c3ccc(NC(=O)OC(C)C)cc3)[nH]c2-c2ccnc(Br)c2)c1"
Marked response: 18.3

Exam item: Please supply the value of reported growth for the item "O=C(COc1ccc(/C=C2\Cc3ccc(Cl)cc3C2=O)cc1)Nc1nc2ccccc2s1"
Marked response: 116
